Origin of values: the supplement of paper PMC6555819

test system: THRa homodimer (NR concentration 90 nM); test: PBM binding z-score (relative to random genomic background probes); higher = stronger binding; sequences stand for … in GC…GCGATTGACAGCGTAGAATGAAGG
outcomeMeasure: PBM binding z-score
Number, no unit, nothing else.

Reference set, count: 6
QUERY: Given the sequence CGAACTAGGTCATTGACAGAACAGTGAATAGTAA , what is its reported PBM binding z-score?
RESULT: 0.922

QUERY: Given the sequence TTACCAAGTTGAAAGGTCGTTGATGCACGCCTTG , what is its reported PBM binding z-score?
RESULT: -0.189

QUERY: Given the sequence TAACCTAGGTCATTCAGGGGCCAGTATAGAAAGC , what is its reported PBM binding z-score?
RESULT: 1.26

QUERY: Given the sequence CCGAGTAGGGTATGGGGCATTCAGGCAACGGTGA , what is its reported PBM binding z-score?
RESULT: 0.0739

QUERY: Given the sequence ATCTCTAGGTAAGCCTCAGTTCAGTGAAGAACGC , what is its reported PBM binding z-score?
RESULT: 1.15

QUERY: Given the sequence TGAATGAGGTTATAAAATCAGGGAACGTTGCAAA , what is its reported PBM binding z-score?
RESULT: -0.0954

Continuing:
QUERY: Given the sequence AATACAGCGTCATCGTAGGCCAGAGTACGCACAG , what is its reported PBM binding z-score?
RESULT: -0.659

QUERY: Given the sequence CCTACTGGGCCATCAGGTCAATGATATCAACGTT , what is its reported PBM binding z-score?
RESULT: 2.24

QUERY: Given the sequence CAAACTAGGTCTAGAGGTCAAAGTCCGCTTCCCG , what is its reported PBM binding z-score?
RESULT: 1.56

QUERY: Given the sequence AGCACGAGGGCACGCTGAGTTGATAGCAGAGTAG , what is its reported PBM binding z-score?
RESULT: 0.103

QUERY: Given the sequence AGTCAAAGTTCAGGACGAGGTAACGTGAAGCACG , what is its reported PBM binding z-score?
RESULT: 1.65

QUERY: Given the sequence GCAGACAGGTGAAACGCATGTAACTCAGGGTGGC , what is its reported PBM binding z-score?
RESULT: -0.704
